# System: MS2 coat protein
# Assay text: apparent KD of MS2 coat protein, switch ON state; designed switch direction (-1 OFF switch, 1 ON switch): -1; higher = weaker reporter binding
# Experimental setup: FMN input: 0 or 200 uM; Eterna round: R93 (includes R88 designs)
Assign class by apparent KD of MS2 coat protein: not lower than 50 nM means MET; lower than 50 nM means NOT MET.

Prompt: Hi team, for AAGAAGCUAGGAUAUACUAACGAAACUAAUGCAUAGAUAAAACAUGAGGAUCACCCAUGUAGAAGGAGCAGAAU [JR_Exc002_Sub014] , is the recorded apparent KD of MS2 coat protein at or above 50 nM?
Response: NOT MET

Prompt: Please tell me: is the sequence CGAAUACAUGAGGAUCACCCAUGUUAGGAUAUGCGAAAACAAAACAAAACAAACAAAAGUAGAAGGAGCAACAA [EXC - 1] at or over 50 nM in terms of apparent KD of MS2 coat protein?
Response: NOT MET

Prompt: Can UGGGAGUCAGGAUAUACGAACAUGUCGCCAGAUGUCAAGGUACAUGAGGAUCACCCAUGUAGAAGGGACGAGAA [salish99-Ex2-28] be said to have apparent KD of MS2 coat protein at or above 50 nM?
Response: MET

Prompt: Identify whether the reported apparent KD of MS2 coat protein of the following sequence is 50 nM or greater: AAGAAGUGAGGAUAUCGAAGACUGUCGAAAAGACAGUCGAACGAGAAGGCACAUGAGGAUCACCCAUGUGAGGA [Marsurpial 65% 2]
Response: NOT MET

Prompt: Answer whether apparent KD of MS2 coat protein of AAAAAAGGAGGAUAUACGAACAUGUCGAAAGACGUGAAGGGACAUGAGGAUCACCCAUGUAGAAGGCUUAAAAA [Mat - Exclusion 2 - JL mod - D69] is greater than or equal to 50 nM.
Response: NOT MET

Prompt: Quick check, apparent KD of MS2 coat protein >= 50 nM? AACAGUACAGGAUAUACAUGAGGAUCACCCAUGUAAAAAUAAUAAAAGGGAAAAACUCGUAGAAGGGUACUGGA [Moding Maslow revisited (73) 16]
Response: MET

====

# Test system: MS2 coat protein
# Assay text: apparent KD of MS2 coat protein; higher = weaker reporter binding
# Experimental setup: Eterna round: R107; input ligand: arginine 13.2 mM
Decision: apparent KD of MS2 coat protein compared against 20 nM; not below it gives criterion met, below it gives criterion not met.

Prompt: Does UAUGCACAUGAGGAUCACCCAUGUAUGGAAGGAGCGGUGAAUAAACCAGGUAGGUCGCCAUUGUGAGGGUCAUCUAUGUAAUCGU [Exclusion - Arginine A (Freestyle 4)] have a reported apparent KD of MS2 coat protein of at least 20 nM?
Response: criterion met

Prompt: Hello, I need to know if CCGGGCUGUGGAGACAUAGCCCGGACUGAAGGAGCGGGAAUAAACCCAGGUAGGUCGCAGAGAUCCACAUGAGGAUCACCCAUGU [!0.S] has measured apparent KD of MS2 coat protein not below 20 nM. Thanks!
Response: criterion met

Prompt: Determine whether this sequence has apparent KD of MS2 coat protein no lower than 20 nM: GGUUUAUAUAUAUAUAUAUAGAUUACUGAAGGAGCGGGAAAUAACCCAGGUAGGUCGCAGAGAUCCACAUGAGGAUCACCCAUGU [!0.E]
Response: criterion met

Prompt: Check if apparent KD of MS2 coat protein >= 20 nM (inclusive). Item: AAUGUGAAGGCGGCCGCCACUGAUAAUAGACAUGAGGAUCACCCAUGUAUAAAUCCUCAAUAAGACAGGACCGGGCCAUCUACGU [#25 Exclusion Tryptophan B]
Response: criterion met

Prompt: Say whether AGCAUGUUAUCAGAUACCAGACAUCUUUUAAUACAUAUUACAUGAGGAUCACCCAUGUUGGUCCCUUGGCAGCUGAAAUAUUUCA [JR_Nu_SSTheophyB_Sub023] shows apparent KD of MS2 coat protein of 20 nM or more.
Response: criterion met

Prompt: Check the entry AAAUUAUAGGCGGCCGCCACUAGAGUUAGGCUUAUGUACUGGGUAACAUGAGGAUCACCCAUGUAUAGGACCGGGCCAUAAUAAA [Same State - Tryptophan B (Freestyle 3)] : does apparent KD of MS2 coat protein equal or exceed 20 nM?
Response: criterion met

Prompt: apparent KD of MS2 coat protein >= 20 nM for UAAUUUAUAGGGUAUAUCAGAUUAACUGAAGGAGCGUGGUAAUACACAGGUAGGUCGCAGAUGGAACAUGAGGAUCACCCAUGUU [JR_ExcArginiA_Sub016] ?
Response: criterion not met

Prompt: Does apparent KD of MS2 coat protein meet or surpass 20 nM for UAUAUAUGGAUGGAUACCAGCAGAGAAAACGUUUAUCCUAACAUGAGGAUCACCCAUGUAUGCCCUUGGCAGCUGUUUAUAUAUA [8.J] ?
Response: criterion met

Prompt: Threshold query (apparent KD of MS2 coat protein >= 20 nM) on GUAGCGACGGCGGCCGCCACUCGCACGUGAGGGUAGACCAACCUUCACAUGAGGAUCACCCAUGUGAGGACCGGGCUGUCGCUAC [#15 Exclusion Tryptophan B]
Response: criterion not met

Prompt: Identify whether the reported apparent KD of MS2 coat protein of the following sequence is 20 nM or greater: GCUACAUGAGGAUCACCCAUGUAUGCGAGCCGAGGACCGGUACGGCCGCCACUCGCUUAACAUGAGGAUCACCCAUGUUUCUCGG [SSTA DOUBLE!!! :-D #16]
Response: criterion met

Prompt: Threshold query (apparent KD of MS2 coat protein >= 20 nM) on AGCCGUACGUACGGAAACGUACGUACGGCACGAGGACCGGUACGGCCGCCACUCGCCCACAUGAGGAUCACCCAUGUAGUGGGUG [The One Line]
Response: criterion met

Prompt: Would you say CUCCUGGGAGCGGCCGCCACUGGAGGCCUUGCGCGACAUGAGGAUCACCCAUGUUGGCCCGGCCUCAGGACCGGGUUCGCGCGAG [Same State - Tryptophan B Attempt #2] shows apparent KD of MS2 coat protein at minimum 20 nM?
Response: criterion not met

Prompt: Assess whether reported apparent KD of MS2 coat protein for CUCCCGUGGUCGGCCGCCACUGGAGGCCUUGCGCGACAUGAGGAUCACCCAUGUGGGCCCGGCGUCAGGACCGGGAUCGCGUGAG [#1 Same State - Tryptophan B Attempt #11 (HarryS)] sits at 20 nM or higher.
Response: criterion not met

Prompt: Reported apparent KD of MS2 coat protein reaches at least 20 nM for ACGAACUGUAGUGAUACCAGACGUACAUGAGGAUCACCCAUGUUGUAAACAUGGUGAAUAGUCCCUUGGCAGCACAGUUAGUUCG [#11 Exclusion-TheophyllineB] ?
Response: criterion met

Prompt: Is the recorded value of apparent KD of MS2 coat protein equal to or greater than 20 nM for this sequence? CCUCGGGACCGAAGGAGCGAGAUAACAACAUUGGGUCUCAACACAUGAGGAUCACCCAUGUCUCAGGUAGGUCGCGGUACCAUGG [Exclusion Arginine B GF22]
Response: criterion met

Prompt: Entry ACGUCACGUUUACUCGUGGUUUCGAUCGAUACCAGUAGCGAGAGUUACCCUUGGCAGCGACAUGAGGAUCACCCAUGUGCGAAGA [XTheo A #26] : is its apparent KD of MS2 coat protein no less than 20 nM?
Response: criterion not met

Prompt: In plain terms: is recorded apparent KD of MS2 coat protein at least 20 nM for ACAUGAGGAUCACCCAUGUCAGGGCACGAUACCAGCUGAUCCGAUGGCCCUUGGCAGCGUGACGUGUGGUCAUGAGGAUCACCCG [kvfmullin] ?
Response: criterion met

Prompt: Tell me whether apparent KD of MS2 coat protein is at least 20 nM here: CUAUAGAUAAGAAGGAGCGUCGAAAAUGGGUAAACAUGAGGAUCACCCAUGUAAAGGGAACGACAGGUAGGUCGCUUAUUUAUAG [AstromonsSSArgB#6]
Response: criterion met

Prompt: Hello, I need to know if AACUGGAAAAGUGAUACCAGAGACAUGAGGAUCACCCAUGUACAUGAGGAUCACCCAUGUCUCCCUUGGCAGCACAAAAGGGAGA [Exclusion Theophylline B Gf11] has measured apparent KD of MS2 coat protein not below 20 nM. Thanks!
Response: criterion not met

Prompt: Confirm if apparent KD of MS2 coat protein reported for the sequence AGACAUGAGGAUCACCCAUGUAGUACGGAUACCAGAUCCAGAUGUAUCCCUUGGCAGCUGUGGUACAGCGUUGCAACGCUCCUAG [Exclusion - Theophylline A (Freestyle 18)] is 20 nM or above.
Response: criterion not met

Prompt: Could you please find out whether GGUCUCUGGAGCGAUACCAGCUUAAUCGUACUGGCCAGGUACAUGAGGAUCACCCAUGUAAGCCCUUGGCAGCGCUCCAGAGACC [#1 Exclusion - Theophylline B Attempt #11 (HarryS)] has apparent KD of MS2 coat protein that meets 20 nM or exceeds it?
Response: criterion not met

Value source: the supplement of paper PMC9170038
